- TARGET OF ASSAY: T1, soluble human FcRn (shFcRn) (human, UniProt P55899 24-297; P61769 21-119)
- T1 construct: Biotinylated for the ELISA, amine-coupled to a CM5 chip for SPR; also called biotinylated shFcRn
- T1 sequence (P55899 24-297 limits assumed, chain 1 of 2): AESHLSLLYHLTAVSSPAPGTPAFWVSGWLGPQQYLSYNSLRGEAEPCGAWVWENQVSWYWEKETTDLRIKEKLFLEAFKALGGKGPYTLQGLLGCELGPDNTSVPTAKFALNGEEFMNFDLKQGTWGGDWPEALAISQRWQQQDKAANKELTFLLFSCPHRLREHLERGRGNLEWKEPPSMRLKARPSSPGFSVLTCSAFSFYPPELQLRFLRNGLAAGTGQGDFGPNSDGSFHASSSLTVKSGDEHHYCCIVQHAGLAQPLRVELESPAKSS
- T1 sequence (P61769 21-119 limits assumed, chain 2 of 2): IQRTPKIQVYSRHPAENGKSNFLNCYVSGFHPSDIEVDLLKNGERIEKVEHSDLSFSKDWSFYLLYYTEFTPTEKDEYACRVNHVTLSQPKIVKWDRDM
- EXPERIMENT SUMMARY: IgG competition ELISA
Bridge positions count the residues as written; N and C are the ends. Square brackets hold non-standard residues; d marks the D form. Ends that are not written are not given here. hCys = N[C@@H](CCS)C(=O)O
RESULT TYPE: IC50 (µM)
Answers are plain numbers, in µM.

Task: Could you please provide reported IC50 for QRFCTGHFGGLYP[hCys]NGP-NH2 (disulfide 4-14; N-terminus assumed; SMILES CC(C)C[C@@H]1NC(=O)CNC(=O)CNC(=O)[C@H](Cc2ccccc2)NC(=O)[C@H](Cc2c[nH]cn2)NC(=O)CNC(=O)[C@H]([C@@H](C)O)NC(=O)[C@@H](NC(=O)[C@H](Cc2ccccc2)NC(=O)[C@H](CCCNC(=N)N)NC(=O)[C@@H](N)CCC(N)=O)CSSCC[C@@H](C(=O)N[C@@H](CC(N)=O)C(=O)NCC(=O)N2CCC[C@H]2C(N)=O)NC(=O)[C@@H]2CCCN2C(=O)[C@H](Cc2ccc(O)cc2)NC1=O) [Peptide No. 27] ? Thanks!
Result: 21
